# credit: patent US20240158446A1

Catalogue of compounds with associated Kd
target: GDP-bound KRAS wild-type protein (Homo sapiens); assay: Binding to KRAS by surface plasmon resonance (SPR), Single Cycle Kinetics; settings: SPR, Single Cycle Kinetics, GDP-bound KRAS wild-type protein; read-out: KRAS KD
Sequence (P01116 whole entry): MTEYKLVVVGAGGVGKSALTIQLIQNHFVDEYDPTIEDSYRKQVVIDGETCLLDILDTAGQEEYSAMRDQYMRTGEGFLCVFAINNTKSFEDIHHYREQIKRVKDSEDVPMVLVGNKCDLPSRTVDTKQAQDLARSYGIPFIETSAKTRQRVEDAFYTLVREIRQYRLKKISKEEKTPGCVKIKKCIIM
Unit pM implied. Number only.

{"Compound": "CCCN(C)C(=O)[C@@H]1CC(=O)N(C)[C@@H](C)C(=O)N[C@@H]([C@@H](C)CC)C(=O)N(C)CC(=O)N(C)[C@H]2C/C=C\\CCN(C2=O)[C@@H](Cc2ccc(C(F)(F)F)cc2)C(=O)N(C)CC(=O)N[C@@H](CCc2cc(F)c(C(F)(F)F)c(F)c2)C(=O)N2C[C@H](OCC)C[C@H]2C(=O)NC2(CCC2)C(=O)N(C)[C@@H](C2CCCC2)C(=O)N1C [PP1666]", "Value": 76}

Switching to the query record.
Query: Consider the compound CC[C@H](C)[C@@H]1NC(=O)[C@H](CC)N(C)C(=O)C[C@@H](C(=O)N(C)C)N(C)C(=O)[C@H](C2CCCC2)N(C)C(=O)C2(CCC2)NC(=O)[C@@H]2CC(F)(F)CN2C(=O)[C@H](CCc2cc(F)c(C(F)(F)F)c(F)c2)NC(=O)CN(C)C(=O)[C@H](Cc2ccc(C(F)(F)F)cc2)N2CC/C=C\C[C@@H](C2=O)N(C)C(=O)CN(C)C1=O [PP1129] and give its measured Kd.
Response: 56
